tested on: P. aeruginosa PA01; assay: MIC, microbroth dilution in Mueller-Hinton broth; type: cell-based, Pseudomonas aeruginosa; details: Pseudomonas aeruginosa, PA01, read-out: MIC PA
Measured MIC values are reported for all entries that follow.
readoutName: MIC (µg/mL)

INSERT INTO results (compound, relationsymbol, recordedresult) VALUES
  ('CC1(C)S[C@@H]2[C@H](NC(=O)[C@H](N)c3ccccc3)C(=O)N2[C@H]1C(=O)O [ampicillin, reference compound]', '>', 200),
  ('CC1(C)SC2C(NC(=O)C(NC(=O)C3=C(O)C(c4ccccc4)NC3=O)c3ccccc3)C(=O)N2C1C(=O)O (stereo not shown)', '=', 25),
  ('CC1(C)SC2C(NC(=O)C(NC(=O)C3=C(O)C(Cc4ccc(F)cc4)NC3=O)c3ccccc3)C(=O)N2C1C(=O)O (stereo not shown)', '=', 25),
  ('CC(C)(C)Oc1ccc(CC2NC(=O)C(C(=O)NC(C(=O)NC3C(=O)N4C3SC(C)(C)C4C(=O)O)c3ccccc3)=C2O)cc1 (stereo not shown)', '=', 25),
  ('CC1(C)SC2C(NC(=O)C(NC(=O)C3=C(O)C4CCCN4C3=O)c3ccccc3)C(=O)N2C1C(=O)O (stereo not shown)', '=', 25),
  ('CC1(C)S[C@@H]2[C@H](NC(=O)C(C(=O)O)c3ccccc3)C(=O)N2[C@H]1C(=O)O (stereo partly shown) [carbenicillin, reference compound]', '=', 100),
  ('CC1(C)SC2C(NC(=O)C(NC(=O)C3=C(O)C(Cc4ccco4)NC3=O)c3ccccc3)C(=O)N2C1C(=O)O (stereo not shown)', '=', 12.5);

* * *

Measured MIC values are reported for all entries that follow.
tested on: P. aeruginosa PA01; assay: MIC, microbroth dilution in Mueller-Hinton broth; assay type: cell-based, Pseudomonas aeruginosa; settings: Pseudomonas aeruginosa, PA01, read-out: MIC PA MH+BP
readoutName: MIC (µg/mL)

INSERT INTO results (molecule, testsystem, readoutname, unittext, recordedresult) VALUES
  ('CC1(C)SC2C(NC(=O)C(NC(=O)C3=C(O)C(Cc4ccc([N+](=O)[O-])cc4)NC3=O)c3ccccc3)C(=O)N2C1C(=O)O (centres unmarked)', 'P. aeruginosa PA01', 'MIC', 'µg/mL', 25),
  ('CC1(C)SC2C(NC(=O)C(NC(=O)C3=C(O)C(Cc4ccco4)NC3=O)c3ccccc3)C(=O)N2C1C(=O)O (centres unmarked)', 'P. aeruginosa PA01', 'MIC', 'µg/mL', 12.5),
  ('CC1(C)SC2C(NC(=O)C(NC(=O)C3=C(O)C(c4ccccc4)NC3=O)c3ccccc3)C(=O)N2C1C(=O)O (centres unmarked)', 'P. aeruginosa PA01', 'MIC', 'µg/mL', 50),
  ('CC1(C)SC2C(NC(=O)C(NC(=O)C3=C(O)C(Cc4ccc(F)cc4)NC3=O)c3ccccc3)C(=O)N2C1C(=O)O (centres unmarked)', 'P. aeruginosa PA01', 'MIC', 'µg/mL', 25),
  ('CC(C)(C)Oc1ccc(CC2NC(=O)C(C(=O)NC(C(=O)NC3C(=O)N4C3SC(C)(C)C4C(=O)O)c3ccccc3)=C2O)cc1 (centres unmarked)', 'P. aeruginosa PA01', 'MIC', 'µg/mL', 6.25),
  ('CC1(C)SC2C(NC(=O)C(NC(=O)C3=C(O)C(Cc4ccc(O)cc4)NC3=O)c3ccccc3)C(=O)N2C1C(=O)O (centres unmarked)', 'P. aeruginosa PA01', 'MIC', 'µg/mL', 25),
  ('CC1(C)SC2C(NC(=O)C(NC(=O)C3=C(O)C(Cc4ccsc4)NC3=O)c3ccccc3)C(=O)N2C1C(=O)O (centres unmarked)', 'P. aeruginosa PA01', 'MIC', 'µg/mL', 25),
  ('CC1NC(=O)C(C(=O)NC(C(=O)NC2C(=O)N3C2SC(C)(C)C3C(=O)O)c2ccccc2)=C1O (centres unmarked)', 'P. aeruginosa PA01', 'MIC', 'µg/mL', 50),
  ('CC1(C)SC2C(NC(=O)C(NC(=O)C3=C(O)C(Cc4ccccc4)NC3=O)c3ccccc3)C(=O)N2C1C(=O)O (centres unmarked)', 'P. aeruginosa PA01', 'MIC', 'µg/mL', 6.25),
  ('CC(C)C1NC(=O)C(C(=O)NC(C(=O)NC2C(=O)N3C2SC(C)(C)C3C(=O)O)c2ccccc2)=C1O (centres unmarked)', 'P. aeruginosa PA01', 'MIC', 'µg/mL', 50),
  ('CC1(C)SC2C(NC(=O)C(NC(=O)C3=C(O)CN(c4ccccc4)C3=O)c3ccccc3)C(=O)N2C1C(=O)O (centres unmarked)', 'P. aeruginosa PA01', 'MIC', 'µg/mL', 50),
  ('CC1(C)SC2C(NC(=O)C(NC(=O)C3=C(O)C4CCCN4C3=O)c3ccccc3)C(=O)N2C1C(=O)O (centres unmarked)', 'P. aeruginosa PA01', 'MIC', 'µg/mL', 25),
  ('CC1(C)SC2C(NC(=O)C(NC(=O)C3=C(O)C4(CC4)NC3=O)c3ccccc3)C(=O)N2C1C(=O)O (centres unmarked)', 'P. aeruginosa PA01', 'MIC', 'µg/mL', 25),
  ('CC1(C)SC2C(NC(=O)C(NC(=O)C3=C(O)CNC3=O)c3ccccc3)C(=O)N2C1C(=O)O (centres unmarked)', 'P. aeruginosa PA01', 'MIC', 'µg/mL', 12.5);

* * *

Measured MIC ECΔampC + values are reported for all entries that follow.
tested on: E. coli BW25113 ΔampC derivative JW4111-2; type: cell-based, Escherichia coli; details: {}
readoutName: MIC ECΔampC + (µg/mL)

INSERT INTO measurements (compound, recordedresult) VALUES
  ('CC1(C)SC2C(NC(=O)C(NC(=O)C3=C(O)C(Cc4ccc(O)cc4)NC3=O)c3ccccc3)C(=O)N2C1C(=O)O (stereo not drawn)', 6.25),
  ('CC1(C)SC2C(NC(=O)C(NC(=O)C3=C(O)C(Cc4ccc(F)cc4)NC3=O)c3ccccc3)C(=O)N2C1C(=O)O (stereo not drawn)', 3.13),
  ('CC1(C)SC2C(NC(=O)C(NC(=O)C3=C(O)C4CCCN4C3=O)c3ccccc3)C(=O)N2C1C(=O)O (stereo not drawn)', 3.13),
  ('CC1(C)SC2C(NC(=O)C(NC(=O)C3=C(O)C(Cc4ccccc4)NC3=O)c3ccccc3)C(=O)N2C1C(=O)O (stereo not drawn)', 3.13),
  ('CC(C)(C)Oc1ccc(CC2NC(=O)C(C(=O)NC(C(=O)NC3C(=O)N4C3SC(C)(C)C4C(=O)O)c3ccccc3)=C2O)cc1 (stereo not drawn)', 12.5),
  ('CCN1CCN(C(=O)N[C@@H](C(=O)N[C@@H]2C(=O)N3[C@@H]2SC(C)(C)[C@@H]3C(=O)O)c2ccccc2)C(=O)C1=O [piperacillin, reference compound]', 1.56);

* * *

test system: E. coli BW25113 ΔampC derivative JW4111-2; assay type: cell-based, Escherichia coli; settings: {}
readoutName: MIC ECΔampC + (µg/mL)

INSERT INTO results (compound, recordedresult) VALUES
  ('CC1(C)SC2C(NC(=O)C(NC(=O)C3=C(O)C(Cc4ccc([N+](=O)[O-])cc4)NC3=O)c3ccccc3)C(=O)N2C1C(=O)O (stereo not shown)', 12.5),
  ('CC1(C)S[C@@H]2[C@H](NC(=O)[C@H](N)c3ccccc3)C(=O)N2[C@H]1C(=O)O [ampicillin, reference compound]', 1.56),
  ('CC1(C)SC2C(NC(=O)C(NC(=O)C3=C(O)C(c4ccccc4)NC3=O)c3ccccc3)C(=O)N2C1C(=O)O (stereo not shown)', 6.25),
  ('CC(C)(C)OCC1NC(=O)C(C(=O)NC(C(=O)NC2C(=O)N3C2SC(C)(C)C3C(=O)O)c2ccccc2)=C1O (stereo not shown)', 6.25),
  ('CC1(C)SC2C(NC(=O)C(NC(=O)C3=C(O)CN(c4ccccc4)C3=O)c3ccccc3)C(=O)N2C1C(=O)O (stereo not shown)', 6.25),
  ('CC(C)C1NC(=O)C(C(=O)NC(C(=O)NC2C(=O)N3C2SC(C)(C)C3C(=O)O)c2ccccc2)=C1O (stereo not shown)', 12.5),
  ('CC1(C)SC2C(NC(=O)C(NC(=O)C3=C(O)CNC3=O)c3ccccc3)C(=O)N2C1C(=O)O (stereo not shown)', 6.25),
  ('CC1(C)SC2C(NC(=O)C(NC(=O)C3=C(O)C4(CC4)NC3=O)c3ccccc3)C(=O)N2C1C(=O)O (stereo not shown)', 6.25),
  ('CC1(C)SC2C(NC(=O)C(NC(=O)C3=C(O)C(Cc4ccsc4)NC3=O)c3ccccc3)C(=O)N2C1C(=O)O (stereo not shown)', 3.13),
  ('CC1NC(=O)C(C(=O)NC(C(=O)NC2C(=O)N3C2SC(C)(C)C3C(=O)O)c2ccccc2)=C1O (stereo not shown)', 25),
  ('CC1(C)SC2C(NC(=O)C(NC(=O)C3=C(O)C(Cc4ccco4)NC3=O)c3ccccc3)C(=O)N2C1C(=O)O (stereo not shown)', 6.25),
  ('CN1CC(O)=C(C(=O)NC(C(=O)NC2C(=O)N3C2SC(C)(C)C3C(=O)O)c2ccccc2)C1=O (stereo not shown)', 12.5),
  ('CC(C)CC1NC(=O)C(C(=O)NC(C(=O)NC2C(=O)N3C2SC(C)(C)C3C(=O)O)c2ccccc2)=C1O (stereo not shown)', 1.56);
